protocol.description: Therapeutic index, ratio of dose required to produce 10% increase in lung to terminal body weight ratio administered for 14 days to dose required to produce 50% lymphopenia in Sprague-Dawley rat
assay.conditions: in vivo, read-out: TI
recorded.endpoint: selectivity ratio at 336 h
Give only the figure.

## Task Could you tell me which selectivity ratio at 336 h is on file for "CC(C)Oc1ccc(-c2nc(-c3cccc4c3CC[C@H]4N)no2)cc1C#N.Cl" ?
## Result 2

---

protocol.description: Oral bioavailability in Sprague-Dawley rat at 2 mg/kg administered via gavage by HPLC-LC/MS/MS method
Format: ADME, organism-based
assay.conditions: in vivo
recorded.endpoint: bioavailability (%)
Give just the numeric value; % need not be written.

## Task # get_value(readout='bioavailability', item= CCOc1ccc(-c2nc(-c3cccc4c3CCC4NCCO)no2)cc1OCC (racemic) )
## Result 21
